The following compounds are listed with their measured ΔTm at 100 µM values.
# system_tested: p53 Y220C mutant protein (amino acid residues 94-293) (Homo sapiens, UniProt P04637, Y220C)
# Construct: p53 Y220C mutant protein (amino acid residues 94-293)
# assay_details: Thermal Shift Assay (TSA), dTM
# Format: binding
# experimental_conditions: thermal shift, 100 uM compound; read-out: TSA P53 Y220C dTM (100 uM)
Where a name gives a salt, the structure may show the parent alone.

>  <compound>
CCNC(=O)c1ccc(NCC#Cc2nc3c(N[C@@H]4CCN(C)C[C@@H]4F)cccn3c2SC(F)(F)F)c(OC)c1

>  <ΔTm at 100 µM>
≥ 10 °C

$$$$
>  <compound>
CNC(=O)c1ccc(OC)c(NCC#Cc2nc3c(N[C@@H]4CN(C)C[C@@H]4F)cccn3c2SC(F)(F)F)n1

>  <ΔTm at 100 µM>
≥ 10 °C

$$$$
>  <compound>
CNS(=O)(=O)c1ccc(NCC#Cc2nc3c(N[C@@H]4CCN(C)C[C@@H]4F)cccn3c2CC(F)(F)F)c(OC)c1

>  <ΔTm at 100 µM>
≥ 10 °C

$$$$
>  <compound>
CNC(=O)c1ccc(NCC#Cc2nc3c(N[C@@H]4CCN(C)C[C@@H]4F)cccn3c2SC(F)(F)F)c(OC)c1 [Example 28, formic acid salt]

>  <ΔTm at 100 µM>
≥ 10 °C

$$$$
>  <compound>
CNC(=O)c1ccc(NCC#Cc2nc3c(N[C@@H]4CCc5nncn5C4)cccn3c2SC(F)(F)F)c(OC)c1

>  <ΔTm at 100 µM>
≥ 10 °C

$$$$

Q: Can you share its ΔTm at 100 µM? I mean this compound: COc1cc(C(=O)NC2CC2)ccc1NCC#Cc1nc2c(N[C@@H]3CCN(C)C[C@@H]3F)cccn2c1SC(F)(F)F
A: ≥ 10 °C

Q: Can you share its ΔTm at 100 µM? I mean this compound: COc1cc(C(N)=O)ccc1NCC#Cc1nc2c(N[C@@H]3CCN(C)C[C@@H]3F)cccn2c1SC(F)(F)F
A: ≥ 10 °C

Q: Can you share its ΔTm at 100 µM? I mean this compound: CNC(=O)c1ccc(NCC#Cc2nc3c(N[C@@H]4CCN(C)C[C@@H]4F)cccn3c2SC(F)(F)F)c(OC)n1
A: ≥ 10 °C

Q: Can you share its ΔTm at 100 µM? I mean this compound: CNC(=O)c1ccc(NCC#Cc2nc3c(NC4CCN(C)CC4)cc(N)cn3c2CC(F)(F)F)c(OC)c1
A: 5 to 10 °C

Q: Can you share its ΔTm at 100 µM? I mean this compound: COc1cc(S(=O)(=O)C2CC2)ccc1NCC#Cc1nc2c(N[C@@H]3CCN(C)C[C@@H]3F)cccn2c1SC(F)(F)F
A: ≥ 10 °C

Q: Can you share its ΔTm at 100 µM? I mean this compound: CNC(=O)c1ccc(OC)c(NCC#Cc2nc3c(N[C@H]4C[C@@H]5CC[C@H]([C@H]4F)N5C)cccn3c2SC(F)(F)F)c1
A: ≥ 10 °C

Q: Can you share its ΔTm at 100 µM? I mean this compound: CNC(=O)c1cncc(NCC#Cc2nc3c(N[C@@H]4CCN(C)C[C@@H]4F)cccn3c2SC(F)(F)F)c1
A: ≥ 10 °C

Q: Can you share its ΔTm at 100 µM? I mean this compound: CC#Cc1nc2c(N[C@@H]3CCN(C)C[C@@H]3F)cccn2c1CC(F)(F)F
A: 5 to 10 °C

Q: Can you share its ΔTm at 100 µM? I mean this compound: C=CC(=O)Nc1c(C#CCNc2ccc(C(=O)NC)cc2OC)nc2c(N[C@@H]3CCN(C)C[C@@H]3F)cccn12
A: 5 to 10 °C

Origin of values: patent US20260374766A1
